System: LLC (mouse lung cancer cells)
Test protocol: In vitro anti-tumor cell proliferation activity (MTT method), LLC
Format: cell-based
Condition set: LLC; 48 h; Mean ± SD; read-out: IC50 values of in vitro anti-cell proliferation activity
Counter-ions that a name gives are not always drawn.
Outcome measure: IC50

Compound: N=C(CCl)NCCCC[C@H](Nc1ccc([N+](=O)[O-])c2nonc12)C(=O)NCc1ccccc1
Measured result: > 100 µM
//
Compound: NCCCC[C@H](Nc1ccc([N+](=O)[O-])c2nonc12)C(=O)NCc1ccccc1 [ZD-F, NBD-Lys(HCl)-NBzl]
Measured result: > 100 µM
//
Compound: N=C(CCl)NCCC[C@H](Nc1ccc([N+](=O)[O-])c2nonc12)C(=O)NCc1ccccc1
Measured result: 26.1 µM
//
Compound: CS(=O)(=O)NCCNc1ccc([N+](=O)[O-])c2nonc12 [ZD-C, NBD-N-(2-aminoethyl)methanesulfonamide]
Measured result: > 100 µM
//
Compound: CC(C)C[C@H](Nc1ccc([N+](=O)[O-])c2nonc12)C(=O)N[C@H](C(=O)OCc1ccccc1)C(C)C
Measured result: 96.5 µM
//
Compound: O=C1NCCC[C@@H]1Nc1ccc([N+](=O)[O-])c2nonc12
Measured result: > 100 µM
